Data provenance is PubChem BioAssay (NCATS).

What max response was measured for each of the following?
tested on: HaCat; test: Cytotoxic Profiling of Annotated Libraries Using Quantitative High-Throughput Screening (AID 1296008); conditions: Five cell lines viability, CellTiter-Glo ATP luminescence, 48-72 h; hits give low values; further: on the % scale 0 is the no-effect control and ±100 the full control effect; nearly all actives have a fitted effect of over 60% in size
Records with an inconclusive call do not appear.
Write the answer as a number in %, unit excluded.

Reading of max response for "N#Cc1cc(NC(=O)C(=O)O)c(Cl)c(NC(=O)C(=O)O)c1" with HaCat: -3.53

Entry CC1c2ccccc2CN1NC(=O)c1ccc(Cl)c(S(N)(=O)=O)c1 (stereo not given) , HaCat data, max response value: 0.897

// assay HaCat, entry "N#C/C(=C1/SC[C@@H](c2ccc(Cl)cc2Cl)S1)n1ccnc1" , max response value = -0.746

Value sought: max response, system HaCat, item O=C(CS(=O)Cc1ccco1)NC/C=C\COc1cc(CN2CCCCC2)ccn1 (stereo not given) . Result: -5.87

Field max response (system: HaCat) for entry C[N+]1(CC2COC(c3ccccc3)(c3ccccc3)O2)CCCCC1 (stereo not given) = -14.4

Recorded max response for O=C1CC2(CCCC2)CC(=O)N1CCNCC1COc2ccccc2O1 (stereo not given) on HaCat was -0.105

Per the reported HaCat data, "COc1cc(NS(=O)(=O)c2ccc(N)cc2)nc(C)n1" has max response of -7.5

Measured max response (HaCat), entry C#CC(C)(CC)OC(=O)c1ccccc1C(=O)O (stereo not given) : -2.23

Item C[C@H](N)C(=O)N[C@@H](C)C(=O)NC1[C@H]2CN(c3nc4c(cc3F)c(=O)c(C(=O)O)cn4-c3ccc(F)cc3F)C[C@@H]12 (stereo not given in full) was tested on HaCat; the reported max response is 0.555

Observed max response, HaCat, "O=C1Nc2ccccc2C1(c1ccc(O)cc1)c1ccc(O)cc1" : -55.1
